assay-summary: Dynamic vapour sorption (DVS) analysis in isotherm at 25° C.
Assay type: physicochemical
condition: DVS isotherm 25° C., desorption, stable up to 50% RH (corresponds to about 8 water molecules)
endpoint-name: weight change preserved in desorption up to 50% RH

>  <compound>
C[C@H](CCC(=O)[O-])[C@H]1CC[C@H]2[C@@H]3C[C@H](O)[C@@H]4C[C@H](O)CC[C@]4(C)[C@H]3CC[C@]12C.[Na+] [amorphous form of NaHDC]

>  <readout-value>
about 34%

$$$$
>  <compound>
C[C@H](CCC(=O)[O-])[C@H]1CC[C@H]2[C@@H]3C[C@H](O)[C@@H]4C[C@H](O)CC[C@]4(C)[C@H]3CC[C@]12C.[Na+] [polymorphic form FI]

>  <readout-value>
about 34%

$$$$
>  <compound>
C[C@H](CCC(=O)[O-])[C@H]1CC[C@H]2[C@@H]3C[C@H](O)[C@@H]4C[C@H](O)CC[C@]4(C)[C@H]3CC[C@]12C.[Na+] [NaHDC mixture]

>  <readout-value>
about 34%

$$$$
>  <compound>
C[C@H](CCC(=O)[O-])[C@H]1CC[C@H]2[C@@H]3C[C@H](O)[C@@H]4C[C@H](O)CC[C@]4(C)[C@H]3CC[C@]12C.[Na+] [polymorphic form FII]

>  <readout-value>
about 34%

$$$$
